Give measured shrunken log2 fold change for each item. Keep answers brief.
Tested on: Escherichia coli TOP10
Assay: shrunken log2 fold change of peptide-encoding DNA abundance (4.5 h post-induction vs induction); higher = less antimicrobial activity (less host growth inhibition)
Settings: time post-induction: 4.5 h; library: site-saturation at positions 5, 18, 19, 20
Numbers only.

[[record]]
record_sequence = "RRIRVRPPRLPRPRPRPAGTPRP"
numeric_result = 0.146

[[record]]
record_sequence = "RRIRYRPPRLPRPRPRPCLDPRP"
numeric_result = -0.125

[[record]]
record_sequence = "RRIRHRPPRLPRPRPRPTDQPRP"
numeric_result = -0.00155

[[record]]
record_sequence = "RRIRCRPPRLPRPRPRPNVKPRP"
numeric_result = -0.482

[[record]]
record_sequence = "RRIRERPPRLPRPRPRPYQWPRP"
numeric_result = 0.0039


Provide each entry's shrunken log2 fold change from the list below.
1. RRIRTRPPRLPRPRPRPVWIPRP
2. RRIRKRPPRLPRPRPRPLRFPRP
3. RRIRRRPPRLPRPRPRPVRVPRP
4. RRIRMRPPRLPRPRPRPNMTPRP
5. RRIRPRPPRLPRPRPRPGGKPRP
6. RRIRFRPPRLPRPRPRPIVWPRP

Response:
[-0.651, 0.896, 0.791, 0.188, 0.12, 0.0539]

Provide each entry's shrunken log2 fold change from the list below.
1. RRIRGRPPRLPRPRPRPQHNPRP
2. RRIRYRPPRLPRPRPRPPFGPRP

Response:
-0.186
-0.386

----------
System: Escherichia coli TOP10
Assay: shrunken log2 fold change of peptide-encoding DNA abundance (4.5 h post-induction vs induction); higher = less antimicrobial activity (less host growth inhibition)
Details: time post-induction: 4.5 h; library: site-saturation at positions 5, 18, 19, 20
Assign class 1 whenever shrunken log2 fold change does not fall below 0.02; assign class 0 whenever it does.

[[record]]
record_sequence = "RRIRLRPPRLPRPRPRPGGLPRP"
qualitative_label = "class 1"


Request: Can RRIRCRPPRLPRPRPRPFWLPRP be said to have shrunken log2 fold change at or above 0.02?
Response: class 0

Request: Continue with RRIRLRPPRLPRPRPRPACCPRP
Response: class 1

Request: Continue with RRIRTRPPRLPRPRPRPDQIPRP
Response: class 0

Request: Continue with RRIRYRPPRLPRPRPRPDDNPRP
Response: class 1

Request: Continue with RRIRRRPPRLPRPRPRPIFVPRP
Response: class 0

Request: Continue with RRIRQRPPRLPRPRPRPSSFPRP
Response: class 0

Request: Continue with RRIRWRPPRLPRPRPRPVYPPRP
Response: class 0

Request: Continue with RRIRRRPPRLPRPRPRPRCLPRP
Response: class 1

Request: Continue with RRIRSRPPRLPRPRPRPGDKPRP
Response: class 1

Request: Continue with RRIRRRPPRLPRPRPRPECAPRP
Response: class 1

Request: Continue with RRIRGRPPRLPRPRPRPSRQPRP
Response: class 1

Request: Continue with RRIRIRPPRLPRPRPRPRPNPRP
Response: class 1

Request: Continue with RRIRWRPPRLPRPRPRPESKPRP
Response: class 1

Request: Continue with RRIRIRPPRLPRPRPRPACYPRP
Response: class 0

Request: Continue with RRIRKRPPRLPRPRPRPMMSPRP
Response: class 0

Request: Continue with RRIRLRPPRLPRPRPRPKFAPRP
Response: class 1

Request: Continue with RRIRPRPPRLPRPRPRPTKLPRP
Response: class 0

----------
Give measured shrunken log2 fold change for each item. Keep answers brief.
Test system: Escherichia coli TOP10
Assay: shrunken log2 fold change of peptide-encoding DNA abundance (4.5 h post-induction vs induction); higher = less antimicrobial activity (less host growth inhibition)
Details: time post-induction: 4.5 h; library: site-saturation at positions 5, 18, 19, 20
Answers are plain numbers.

Some solved entries appear below for comparison.
[[record]]
record_sequence = "RRIRVRPPRLPRPRPRPLTAPRP"
numeric_result = 0.106

[[record]]
record_sequence = "RRIRKRPPRLPRPRPRPMKMPRP"
numeric_result = 0.473

[[record]]
record_sequence = "RRIRIRPPRLPRPRPRPSAAPRP"
numeric_result = 0.0317

[[record]]
record_sequence = "RRIRKRPPRLPRPRPRPIATPRP"
numeric_result = -0.0616


Request: Look at this sequence and give its reported shrunken log2 fold change. RRIRTRPPRLPRPRPRPIPEPRP
Response: -0.0588

----------
System: Escherichia coli TOP10
Assay: shrunken log2 fold change of peptide-encoding DNA abundance (4.5 h post-induction vs induction); higher = less antimicrobial activity (less host growth inhibition)
Settings: time post-induction: 4.5 h; library: site-saturation at positions 5, 18, 19, 20
Assign yes (1) whenever shrunken log2 fold change does not fall below -0.03; assign no (0) whenever it does.

[[record]]
record_sequence = "RRIRDRPPRLPRPRPRPNCNPRP"
qualitative_label = "yes (1)"


API: the following record is the query input.
Request: Can RRIRQRPPRLPRPRPRPIRHPRP be said to have shrunken log2 fold change at or above -0.03?
Response: no (0)

----------
Tested on: Escherichia coli TOP10
Experiment: shrunken log2 fold change of peptide-encoding DNA abundance (4.5 h post-induction vs induction); higher = less antimicrobial activity (less host growth inhibition)
Settings: time post-induction: 4.5 h; library: site-saturation at positions 5, 18, 19, 20
Grouping rule (shrunken log2 fold change): b0 (below -0.2), b1 (-0.2 to below 0.05), b2 (0.05 or more)

[[record]]
record_sequence = "RRIRLRPPRLPRPRPRPDIIPRP"
qualitative_label = "b1"

[[record]]
record_sequence = "RRIRCRPPRLPRPRPRPGTQPRP"
qualitative_label = "b1"

[[record]]
record_sequence = "RRIRVRPPRLPRPRPRPHHLPRP"
qualitative_label = "b0"

[[record]]
record_sequence = "RRIRYRPPRLPRPRPRPCLYPRP"
qualitative_label = "b0"

[[record]]
record_sequence = "RRIRARPPRLPRPRPRPGQYPRP"
qualitative_label = "b1"


Request: Which shrunken log2 fold change category applies to RRIRWRPPRLPRPRPRPHVNPRP here?
Response: b0

Request: Continue with RRIRKRPPRLPRPRPRPAAWPRP
Response: b2

Request: Continue with RRIRGRPPRLPRPRPRPVCTPRP
Response: b2

Request: Continue with RRIRWRPPRLPRPRPRPSSIPRP
Response: b0

Request: Continue with RRIRPRPPRLPRPRPRPPAVPRP
Response: b2

Request: Continue with RRIRNRPPRLPRPRPRPKRLPRP
Response: b1

Request: Continue with RRIRHRPPRLPRPRPRPTWQPRP
Response: b2

Request: Continue with RRIRVRPPRLPRPRPRPYKIPRP
Response: b0

Request: Continue with RRIRRRPPRLPRPRPRPEIQPRP
Response: b2

Request: Continue with RRIRGRPPRLPRPRPRPNSVPRP
Response: b1

Request: Continue with RRIRSRPPRLPRPRPRPQNWPRP
Response: b2

Request: Continue with RRIRMRPPRLPRPRPRPHQKPRP
Response: b1

Request: Continue with RRIRWRPPRLPRPRPRPTRQPRP
Response: b2

Request: Continue with RRIRLRPPRLPRPRPRPRPWPRP
Response: b2

Request: Continue with RRIRRRPPRLPRPRPRPEGSPRP
Response: b2

Request: Continue with RRIRRRPPRLPRPRPRPKKYPRP
Response: b1

Request: Continue with RRIRFRPPRLPRPRPRPWDTPRP
Response: b0

Request: Continue with RRIRERPPRLPRPRPRPIGEPRP
Response: b2

Request: Continue with RRIRERPPRLPRPRPRPVLNPRP
Response: b0

----------
Give measured shrunken log2 fold change for each item. Keep answers brief.
System: Escherichia coli TOP10
Test: shrunken log2 fold change of peptide-encoding DNA abundance (4.5 h post-induction vs induction); higher = less antimicrobial activity (less host growth inhibition)
Conditions: time post-induction: 4.5 h; library: site-saturation at positions 5, 18, 19, 20
One number for each entry.

Some solved entries appear below for comparison.
[[record]]
record_sequence = "RRIRSRPPRLPRPRPRPWMTPRP"
numeric_result = -0.000334

[[record]]
record_sequence = "RRIRSRPPRLPRPRPRPGWRPRP"
numeric_result = 0.923

[[record]]
record_sequence = "RRIRKRPPRLPRPRPRPWLCPRP"
numeric_result = 0.466


Provide each entry's shrunken log2 fold change from the list below.
1. RRIRFRPPRLPRPRPRPGWWPRP
2. RRIRVRPPRLPRPRPRPDWYPRP
3. RRIRKRPPRLPRPRPRPSLPPRP

Response:
[-0.0573, -0.0357, -0.0153]

----------
System: Escherichia coli TOP10;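 further: peptides expressed intracellularly from a pBAD plasmid library in pooled LB shake-flask culture, induced with 0.3% L-arabinose, DNA abundance read by NGS, three biological replicates, DESeq2 with apeglm shrinkage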
Assay: shrunken log2 fold change of peptide-encoding DNA abundance (4.5 h post-induction vs induction); higher = less antimicrobial activity (less host growth inhibition)
Conditions: time post-induction: 4.5 h; library: site-saturation at positions 5, 18, 19, 20
Give measured shrunken log2 fold change for each item. Keep answers brief.
Numbers only.

[[record]]
record_sequence = "RRIRFRPPRLPRPRPRPLSWPRP"
system_name = "Escherichia coli TOP10"
quantity_name = "shrunken log2 fold change"
numeric_result = 0.245

[[record]]
record_sequence = "RRIRQRPPRLPRPRPRPCYWPRP"
system_name = "Escherichia coli TOP10"
quantity_name = "shrunken log2 fold change"
numeric_result = -0.229

[[record]]
record_sequence = "RRIRRRPPRLPRPRPRPNLTPRP"
system_name = "Escherichia coli TOP10"
quantity_name = "shrunken log2 fold change"
numeric_result = -0.245


Provide each entry's shrunken log2 fold change from the list below.
1. RRIRNRPPRLPRPRPRPDAYPRP
2. RRIRRRPPRLPRPRPRPQWNPRP
3. RRIRVRPPRLPRPRPRPHHYPRP

Response:
1: 0.068; 2: -0.153; 3: 0.13

Provide each entry's shrunken log2 fold change from the list below.
1. RRIRDRPPRLPRPRPRPMWGPRP
2. RRIRQRPPRLPRPRPRPKFHPRP
3. RRIRTRPPRLPRPRPRPRACPRP
4. RRIRNRPPRLPRPRPRPSEMPRP
5. RRIRVRPPRLPRPRPRPGCGPRP
6. RRIRIRPPRLPRPRPRPLYFPRP
7. RRIRQRPPRLPRPRPRPHAFPRP
8. RRIRRRPPRLPRPRPRPAFCPRP

Response:
-0.0471
-0.0648
0.608
-0.0844
0.679
-0.961
-0.0738
0.404
